Recorded self-splicing fitness (ln) by entry
PROTOCOL_SUMMARY: self-splicing fitness, log relative to wild type (ln ratio); higher = more splicing; Tetrahymena group I intron in knt gene, E. coli kanamycin selection, DiMSum; sequences stand for … in CUCUCU…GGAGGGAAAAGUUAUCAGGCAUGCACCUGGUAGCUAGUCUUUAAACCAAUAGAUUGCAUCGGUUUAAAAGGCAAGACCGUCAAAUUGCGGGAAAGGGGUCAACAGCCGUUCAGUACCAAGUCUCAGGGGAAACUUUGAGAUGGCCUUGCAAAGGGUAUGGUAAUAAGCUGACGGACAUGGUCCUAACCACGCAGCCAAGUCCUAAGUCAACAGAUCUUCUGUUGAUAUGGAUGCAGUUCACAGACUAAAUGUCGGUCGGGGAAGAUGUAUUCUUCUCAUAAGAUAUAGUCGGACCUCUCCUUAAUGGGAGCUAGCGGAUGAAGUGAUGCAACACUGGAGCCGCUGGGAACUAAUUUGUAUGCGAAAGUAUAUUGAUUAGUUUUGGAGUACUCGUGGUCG;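 note: selection with 25 µg/mL kanamycin versus none on LB agar overnight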
PROTOCOL_CONDITIONS: 37 °C
Please give the numeric answer without any surrounding text.

Below are worked cases with known answers.
{"MACROMOLECULE_SEQUENCE": "CUCUAGCAAUAUUACGGUUA", "self-splicing fitness (ln)": -3.24}
{"MACROMOLECULE_SEQUENCE": "CGUGAGCAAUAUUACGUGAG", "self-splicing fitness (ln)": -1.61}
{"MACROMOLECULE_SEQUENCE": "CAAAAGCAAUAUUACGCGAG", "self-splicing fitness (ln)": -1.06}

So for `GUAUAGCAAUAUUACGGGUU` , the logged self-splicing fitness (ln) turned out to be -2.07

So for `CCUCAGCAAUAUUACGCCAC` , the logged self-splicing fitness (ln) turned out to be -2.12

So for `GGCGAGCAAUAUUACGGGCA` , the logged self-splicing fitness (ln) turned out to be -0.194

So for `CCACAGCAAUAUUACGCAGC` , the logged self-splicing fitness (ln) turned out to be -2.83

So for `ACCCAGCAAUAUUACGGACG` , the logged self-splicing fitness (ln) turned out to be -0.9

So for `CGAUAGCAAUAUUACGGUAG` , the logged self-splicing fitness (ln) turned out to be -0.461

* * *

Recorded self-splicing fitness (ln) by entry
PROTOCOL_SUMMARY: self-splicing fitness, log relative to wild type (ln ratio); higher = more splicing; Tetrahymena group I intron in knt gene, E. coli kanamycin selection, DiMSum; sequences stand for … in CUCUCU…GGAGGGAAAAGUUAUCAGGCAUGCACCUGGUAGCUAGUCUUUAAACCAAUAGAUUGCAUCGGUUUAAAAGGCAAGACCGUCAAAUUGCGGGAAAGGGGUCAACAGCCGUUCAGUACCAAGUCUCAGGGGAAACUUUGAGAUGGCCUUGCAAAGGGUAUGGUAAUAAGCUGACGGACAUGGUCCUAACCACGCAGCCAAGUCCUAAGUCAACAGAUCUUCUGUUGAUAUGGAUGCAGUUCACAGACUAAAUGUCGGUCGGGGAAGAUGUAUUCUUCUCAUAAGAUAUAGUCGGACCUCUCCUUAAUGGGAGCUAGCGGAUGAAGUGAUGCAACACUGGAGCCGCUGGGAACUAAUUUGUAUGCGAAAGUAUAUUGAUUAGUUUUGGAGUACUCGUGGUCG
PROTOCOL_CONDITIONS: 30 °C

Below are worked cases with known answers.
{"MACROMOLECULE_SEQUENCE": "CUGAAGCAAUAUUACGGUUU", "self-splicing fitness (ln)": -3.24}
{"MACROMOLECULE_SEQUENCE": "AUGAAGCAAUAUUACGAGCC", "self-splicing fitness (ln)": -3.01}
{"MACROMOLECULE_SEQUENCE": "CGAUAGCAAUAUUACGCAGU", "self-splicing fitness (ln)": -2.96}
{"MACROMOLECULE_SEQUENCE": "AUCCAGCAAUAUUACGCGCG", "self-splicing fitness (ln)": -2}

So for `UCCGAGCAAUAUUACGAUAC` , the logged self-splicing fitness (ln) turned out to be -4.73

So for `UCCUAGCAAUAUUACGCACA` , the logged self-splicing fitness (ln) turned out to be -2.29

So for `UAGCAGCAAUAUUACGAAAG` , the logged self-splicing fitness (ln) turned out to be -2.58

So for `GUUUAGCAAUAUUACGAUGA` , the logged self-splicing fitness (ln) turned out to be -2.41

So for `CAUGAGCAAUAUUACGGAGU` , the logged self-splicing fitness (ln) turned out to be -4.1

So for `CCCGAGCAAUAUUACGGUCC` , the logged self-splicing fitness (ln) turned out to be -2.99

So for `ACGUAGCAAUAUUACGUAAC` , the logged self-splicing fitness (ln) turned out to be -3.5

So for `CAGAAGCAAUAUUACGUGUU` , the logged self-splicing fitness (ln) turned out to be -4.1
